I'd appreciate it if you could supply pKd values for the items below.
- Tgt: horse spleen apoferritin (HSAF) (Equus caballus, UniProt P02791)
- Protocol description: 1-aminoanthracene
- Type: binding
Remember the convention: pKd equals -log10 of concentration in molar.

Sample `CC(C)c1cccc(C(C)C)c1F` ; pKd observed: 6.15

// recorded pKd for CC(C)c1cccc(C(C)C)c1O [propofol, 2,6-diisopropylphenol, reference compound] : 5.00

---

- Tgt: human serum albumin (hSA) domain III (Homo sapiens, UniProt P02768)
- Protocol description: in vitro
Quantity measured: inhibition at 75 µM (%)
Record the value in %, omitting the unit from your answer.

Just so you know, measured inhibition at 75 µM for `CC(C)c1cccc(C(C)C)c1F` came out at 37

---

- Protocol description: in vivo
- Assay context: C57/B6, mouse, iv, 96 mg/kg
Quantity measured: concentration at 45 s (ng/g)
Write the number in ng/g without appending the unit.

Reported concentration at 45 s ( CC(C)c1cccc(C(C)C)c1F [fropofol, 2-fluoro-1,3-diisopropylbenzene] ) = 38000

---

- Tgt: horse spleen apoferritin (HSAF) (Equus caballus, UniProt P02791)
- Sequence (P02791 2-175 limits assumed): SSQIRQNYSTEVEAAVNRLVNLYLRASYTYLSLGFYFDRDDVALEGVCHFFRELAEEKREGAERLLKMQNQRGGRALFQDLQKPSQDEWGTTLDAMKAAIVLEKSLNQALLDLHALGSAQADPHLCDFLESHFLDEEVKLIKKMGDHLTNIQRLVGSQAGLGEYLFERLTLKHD
- Protocol description: Isothermal titration calorimetry with HSAF
- Assay type: binding
Quantity measured: Kd (µM)
Kindly provide the numeric value in µM only, without the unit symbol.

Field Kd (entry `CC(C)c1cccc(C(C)C)c1F` ) reads 1.7

---

- Tgt: human serum albumin (hSA) (Homo sapiens, UniProt P02768)
- Protocol description: biochemical
Quantity measured: pKd
# pKd: negative log10 of molar concentration; output just the value

Form: compound = CC(C)c1cccc(C(C)C)c1F [fropofol, 2-fluoro-1,3-diisopropylbenzene] ; pKd = 4.04

Hey, just so you know, these numbers are from paper PMC4936777.
